The measurements presented in this section are drawn from BindingDB's records for patent US11725000.

What EC50 was measured for each of the following?
- TESTED SYSTEM: Succinate dehydrogenase [ubiquinone] iron-sulfur subunit, mitochondrial (Homo sapiens, UniProt P21912)
- ASSAY SUMMARY: Apoptosis Inhibition Assay
# value in nM; strip the unit string

# EC50 of [O-][S+](Cc1ccccc1)c1nc(-c2cccs2)cc(C(F)(F)F)n1 (centres undefined) [US11725000, Compound 12] = 3490

# EC50 of Cc1cc(-c2cccs2)nc(S(C)(=O)=O)n1 [US11725000, Compound 34] = 817

# EC50 of C#Cc1cc(-c2cccs2)nc(S(C)(=O)=O)n1 [US11725000, Compound 35] = 995

# EC50 of O=S(=O)(Cc1ccc([N+]2([O-])CCOCC2)cc1)c1nc(-c2cccs2)cc(C(F)(F)F)n1 [US11725000, Compound 22] = 1410

----------
- TESTED SYSTEM: Succinate dehydrogenase [ubiquinone] iron-sulfur subunit, mitochondrial (Homo sapiens)
- Sequence (P21912 whole entry): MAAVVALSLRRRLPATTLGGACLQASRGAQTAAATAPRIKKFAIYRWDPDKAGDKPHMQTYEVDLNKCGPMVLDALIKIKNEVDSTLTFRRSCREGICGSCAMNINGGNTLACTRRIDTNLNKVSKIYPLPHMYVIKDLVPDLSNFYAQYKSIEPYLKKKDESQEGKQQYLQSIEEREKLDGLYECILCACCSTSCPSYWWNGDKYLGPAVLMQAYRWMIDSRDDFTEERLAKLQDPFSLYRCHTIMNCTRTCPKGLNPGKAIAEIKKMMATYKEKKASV
- ASSAY SUMMARY: Apoptosis Inhibition Assay
VALUE TYPE: log10(EC50) (log10 of the value in nM)
Each number you see is log10 of EC50, and the unit inside the log is nM.

# log10(EC50) of [O-][S+](Cc1cc(F)cc(F)c1)c1nc(-c2cccs2)cc(C(F)(F)F)n1 (stereo unspecified) = 3.06

# log10(EC50) of O=C1CCCN1CC[S+]([O-])c1nc(-c2cccs2)cc(C(F)(F)F)n1 (stereo unspecified) = 1.84

# log10(EC50) of O=C(O)CC[S+]([O-])c1nc(-c2cccs2)cc(C(F)(F)F)n1 (stereo unspecified) = 2.70

# log10(EC50) of CCOC(=O)CCS(=O)(=O)c1nc(-c2cccs2)cc(C(F)(F)F)n1 = 2.02

# log10(EC50) of CCOC(=O)CC[S+]([O-])c1nc(-c2cccs2)cc(C(F)(F)F)n1 (stereo unspecified) = 3.69

# log10(EC50) of CCCS(=O)(=O)c1nc(-c2cccs2)cc(C(F)(F)F)n1 = 3.62

----------
- TESTED SYSTEM: Succinate dehydrogenase [ubiquinone] iron-sulfur subunit, mitochondrial (Homo sapiens)
- Sequence (P21912 whole entry): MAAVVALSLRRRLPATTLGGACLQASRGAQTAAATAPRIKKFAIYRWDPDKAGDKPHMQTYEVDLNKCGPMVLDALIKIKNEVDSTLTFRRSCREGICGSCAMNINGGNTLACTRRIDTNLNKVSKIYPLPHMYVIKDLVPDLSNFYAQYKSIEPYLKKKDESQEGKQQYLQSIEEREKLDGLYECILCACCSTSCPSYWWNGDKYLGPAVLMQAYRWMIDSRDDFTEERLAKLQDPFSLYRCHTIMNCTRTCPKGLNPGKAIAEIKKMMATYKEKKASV
- ASSAY SUMMARY: Apoptosis Inhibition Assay
pEC50: −log10 of the molar value.
The label depends only on pEC50: 1 (yes) if it is at least 6, 0 (no) if it is smaller.

Would you say [O-][S+](CC1CC1)c1nc(-c2cccs2)cc(C(F)(F)F)n1 (stereo not drawn) [US11725000, Compound 10] shows pEC50 at minimum 6?
0 (no)

Would you say C[S+]([O-])c1nc(Cl)cc(-c2cccs2)n1 (stereo not drawn) [US11725000, Compound 33] shows pEC50 at minimum 6?
0 (no)

Would you say O=S(=O)(Cc1ccccc1)c1nc(-c2cccs2)cc(C(F)(F)F)n1 [US11725000, Compound 11] shows pEC50 at minimum 6?
0 (no)

Would you say [O-][S+](CCc1ccccc1)c1nc(-c2cccs2)cc(C(F)(F)F)n1 (stereo not drawn) [US11725000, Compound 27] shows pEC50 at minimum 6?
1 (yes)

Would you say O=S(=O)(CCc1ccccc1)c1nc(-c2cccs2)cc(C(F)(F)F)n1 [US11725000, Compound 26] shows pEC50 at minimum 6?
1 (yes)

Would you say N#Cc1ccccc1CS(=O)(=O)c1nc(-c2cccs2)cc(C(F)(F)F)n1 [US11725000, Compound 13] shows pEC50 at minimum 6?
0 (no)
